SYSTEM NAME: ncNOS (Homo sapiens)
ASSAY SUMMARY: Assay Protocol for NOS Activity: formation of L-[3H]Citrulline from L-[3H]Arginine, ncNOS
Type: biochemical
CONDITIONS: 1 μM L-Arg, room temperature, 30 minutes; read-out: ncNOS (IC50)
pIC50: −log10 of the molar value. Structures can show the parent of a compound that is named as a salt.
PROPERTY NAME: pIC50

MOLECULE	REPORTED RESULT
CC(C)CC1CSCCC(N)=N1 (centres unmarked) [Example 11, Hydrochloride]	> 5.00
CCCCC1CSCCC(N)=N1 (centres unmarked) [Example 15, Hydrochloride]	> 5.00
CC(C)=CCC1CSCCC(=N)N1 (centres unmarked) [Example 9, Hydrochloride]	> 4.30
CN1CCN=C(N)CC1 [Example 20, Hydrochloride]	< 4.30
NC1=NCCOCC1 [Example 3, Hydrochloride]	> 5.00
CC1CSCCN=C1N (centres unmarked) [Example 12, Hydrochloride]	> 5.00
NC1=NCCNCC1 [Example 1, Dihydrochloride]	< 4.30
CC1CN=C(N)CCS1 (centres unmarked) [Example 7, Hydrochloride]	> 6.00
CC1CC(N)=NCCS1 (centres unmarked) [Example 6, Hydrochloride]	> 6.00
CC1CSCCC(N)=N1 (centres unmarked) [Example 13, Hydrochloride]	> 5.00
CC(C)=CCC1CSCCNC1=N (centres unmarked) [Example 8, Hydrochloride]	< 4.30

====

SYSTEM NAME: iNOS (Homo sapiens, UniProt P35228)
ASSAY SUMMARY: Assay Protocol for NOS Activity: formation of L-[3H]Citrulline from L-[3H]Arginine, iNOS
Format: biochemical
CONDITIONS: 1 μM L-Arg, room temperature, 30 minutes; read-out: iNOS (IC50)
pIC50: −log10 of the molar value. Where a name gives a salt, the structure may show the parent alone.
pIC50 reference

COMPOUND	pIC50
CCC1CSCCC(N)=N1 (centres unmarked) [Example 14, Hydrochloride]	> 6.00
NC1=NCCSCC1 [Example 2, Hydrochloride]	> 5.00
CC1CSCCN=C1N (centres unmarked) [Example 12, Hydrochloride]	< 4.30
CC1CN=C(N)CCS1 (centres unmarked) [Example 7, Hydrochloride]	> 5.00
CC(C)=CCC1CSCCC(=N)N1 (centres unmarked) [Example 9, Hydrochloride]	> 6.00
CC1CC(N)=NCCS1 (centres unmarked) [Example 6, Hydrochloride]	> 5.00
CC(C)CC1CSCCC(N)=N1 (centres unmarked) [Example 11, Hydrochloride]	> 6.00
C=C(C)CC1CSCCC(=N)N1 (centres unmarked) [Example 16, Hydrochloride]	> 6.00
CN1CCN=C(N)CC1 [Example 20, Hydrochloride]	> 4.30
CCCCC1CSCCC(N)=N1 (centres unmarked) [Example 15, Hydrochloride]	> 6.00
CCCC1CSCCNC1=N (centres unmarked) [Example 5, Hydrochloride]	< 4.30

====

pIC50 reference
SYSTEM NAME: ncNOS (Homo sapiens)
ASSAY SUMMARY: Assay Protocol for NOS Activity: formation of L-[3H]Citrulline from L-[3H]Arginine, ncNOS
Format: biochemical
CONDITIONS: 1 μM L-Arg, room temperature, 30 minutes; read-out: ncNOS (IC50)
pIC50: −log10 of the molar value. Counter-ions that a name gives are not always drawn.

COMPOUND	pIC50
CC(C)CC1CSCCNC1=N (stereo not drawn) [Example 10, Hydrochloride]	< 4.30
N=C1CCS[C@H]2CCCC[C@@H]2N1 (racemic) [Example 17, Acetic Acid Salt]	< 4.30
NC1=NCCSCC1 [Example 2, Hydrochloride]	> 5.00
CCCC1CSCCNC1=N (stereo not drawn) [Example 5, Hydrochloride]	< 4.30
C=C(C)CC1CSCCC(=N)N1 (stereo not drawn) [Example 16, Hydrochloride]	> 5.00
CCC1CSCCC(N)=N1 (stereo not drawn) [Example 14, Hydrochloride]	> 5.00

====

IC50 reference
SYSTEM NAME: ecNOS (Homo sapiens, UniProt P29474)
ASSAY SUMMARY: Assay Protocol for NOS Activity: formation of L-[3H]Citrulline from L-[3H]Arginine, ecNOS
Type: biochemical
Method: NOS activity is measured as the formation of L-[2,3,4,5-^3H]Citrulline from L-[2,3,4,5-^3H]Arginine. The incubation buffer (100 uL) contained; 100 mM TES, pH 7.5, 5 μM FAD, 5 μM FMN, 10 μM BH4, 0.5 mM NADPH, 0.5 mM DTT, 0.5 mg/mL BSA, 2 mM CaC12, 10 ug/mL calmodulin (bovine), 1 μM L-Arg, 0.2 uCi L-[2,3,4,5-^3H]Arg, and the inhibitor in aqueous DMSO (max. 5%). […] Reaction products are separated by passing through a cation exchange resin and quantitated as cpm by scintillation counting.
Structures can show the parent of a compound that is named as a salt.
PROPERTY NAME: IC50

MOLECULE	PROPERTY NAME	REPORTED RESULT
CCC[C@H]1CSCCC(N)=N1 [Example 18, Acetic Acid Salt]	IC50	< 10 µM
CCCC1CSCCC(N)=N1 (stereo not drawn) [Example 4, Hydrochloride]	IC50	< 50 µM
CCC[C@@H]1CSCCC(=N)N1 [Example 19, Acetic Acid Salt]	IC50	< 50 µM

====

SYSTEM NAME: iNOS (Homo sapiens, UniProt P35228)
ASSAY SUMMARY: Assay Protocol for NOS Activity: formation of L-[3H]Citrulline from L-[3H]Arginine, iNOS
Type: biochemical
CONDITIONS: 1 μM L-Arg, room temperature, 30 minutes; read-out: iNOS (IC50)
pIC50: −log10 of the molar value. Counter-ions that a name gives are not always drawn.
pIC50 reference
PROPERTY NAME: pIC50

COMPOUND	REPORTED RESULT
NC1=NCCOCC1 [Example 3, Hydrochloride]	> 4.30
CC(C)CC1CSCCNC1=N (stereo not drawn) [Example 10, Hydrochloride]	> 4.30
N=C1CCS[C@H]2CCCC[C@@H]2N1 (racemic) [Example 17, Acetic Acid Salt]	< 4.30
CC1CSCCC(N)=N1 (stereo not drawn) [Example 13, Hydrochloride]	> 6.00
NC1=NCCNCC1 [Example 1, Dihydrochloride]	< 4.30
CC(C)=CCC1CSCCNC1=N (stereo not drawn) [Example 8, Hydrochloride]	< 4.30

====

SYSTEM NAME: ncNOS (Homo sapiens, UniProt P29475)
ASSAY SUMMARY: Assay Protocol for NOS Activity: formation of L-[3H]Citrulline from L-[3H]Arginine, ncNOS
Assay type: biochemical
Where a name gives a salt, the structure may show the parent alone.

COMPOUND	IC50
CCC[C@H]1CSCCC(N)=N1 [Example 18, Acetic Acid Salt]	< 1 µM
CCC[C@@H]1CSCCC(=N)N1 [Example 19, Acetic Acid Salt]	< 10 µM
CCCC1CSCCC(N)=N1 (stereo not drawn) [Example 4, Hydrochloride]	< 10 µM

====

SYSTEM NAME: ecNOS (Homo sapiens)
ASSAY SUMMARY: Assay Protocol for NOS Activity: formation of L-[3H]Citrulline from L-[3H]Arginine, ecNOS
Assay type: biochemical
CONDITIONS: 1 μM L-Arg, room temperature, 30 minutes; read-out: ecNOS (IC50)
Where a name gives a salt, the structure may show the parent alone.

COMPOUND	IC50
CCC1CSCCC(N)=N1 (stereo not shown) [Example 14, Hydrochloride]	< 50 µM
C=C(C)CC1CSCCC(=N)N1 (stereo not shown) [Example 16, Hydrochloride]	< 50 µM
N=C1CCS[C@H]2CCCC[C@@H]2N1 (racemic) [Example 17, Acetic Acid Salt]	> 50 µM
CCCCC1CSCCC(N)=N1 (stereo not shown) [Example 15, Hydrochloride]	> 50 µM
CC1CN=C(N)CCS1 (stereo not shown) [Example 7, Hydrochloride]	< 10 µM
NC1=NCCOCC1 [Example 3, Hydrochloride]	< 50 µM
CC1CC(N)=NCCS1 (stereo not shown) [Example 6, Hydrochloride]	< 10 µM
CC1CSCCC(N)=N1 (stereo not shown) [Example 13, Hydrochloride]	< 10 µM
CC(C)=CCC1CSCCNC1=N (stereo not shown) [Example 8, Hydrochloride]	> 50 µM
CC(C)CC1CSCCC(N)=N1 (stereo not shown) [Example 11, Hydrochloride]	> 50 µM

====

SYSTEM NAME: ecNOS (Homo sapiens)
ASSAY SUMMARY: Assay Protocol for NOS Activity: formation of L-[3H]Citrulline from L-[3H]Arginine, ecNOS
Format: biochemical
CONDITIONS: 1 μM L-Arg, room temperature, 30 minutes; read-out: ecNOS (IC50)
Counter-ions that a name gives are not always drawn.

MOLECULE	SYSTEM NAME	IC50
CC1CSCCN=C1N (stereo not shown) [Example 12, Hydrochloride]	ecNOS (Homo sapiens)	< 50 µM
CN1CCN=C(N)CC1 [Example 20, Hydrochloride]	ecNOS (Homo sapiens)	> 50 µM
NC1=NCCNCC1 [Example 1, Dihydrochloride]	ecNOS (Homo sapiens)	> 50 µM
CC(C)=CCC1CSCCC(=N)N1 (stereo not shown) [Example 9, Hydrochloride]	ecNOS (Homo sapiens)	> 50 µM
NC1=NCCSCC1 [Example 2, Hydrochloride]	ecNOS (Homo sapiens)	> 10 µM
CCCC1CSCCNC1=N (stereo not shown) [Example 5, Hydrochloride]	ecNOS (Homo sapiens)	> 50 µM
CC(C)CC1CSCCNC1=N (stereo not shown) [Example 10, Hydrochloride]	ecNOS (Homo sapiens)	> 50 µM
